Overview of recorded log10 of EC50 for various compounds
Test system: CHO–K1 cells
Experiment: Seahorse XF-96 OCR dose response of 15 uncouplers (Figure 2)
Type: cell-based, Cricetulus griseus
Details: Cricetulus griseus, CHO-K1, 0.4 h, CHO–K1; mean OCR (% basal) over first 24 min post injection; ± standard error; four-parameter fit; read-out: EC50 (increase of OCR)
measurement.type: log10 of EC50 (log10 of the value in nM)

>>> numeric_result("CC(=O)Oc1ccccc1C(=O)Nc1ncc([N+](=O)[O-])s1 [NTZ, Nitazoxanide]")
3.37
>>> numeric_result("CC(C)(C)c1cc(C=C(C#N)C#N)cc(C(C)(C)C)c1O [TyrA9, Tyrphostin A9]")
1.00
>>> numeric_result("N#CC(C#N)=NNc1ccc(OC(F)(F)F)cc1 [FCCP]")
2.49
>>> numeric_result("O=[N+]([O-])c1ccc(NS(=O)(=O)c2ccc(Br)s2)cc1 [ES9, Endosidin 9]")
3.21
>>> numeric_result("O=C(Nc1ccc([N+](=O)[O-])cc1Cl)c1cc(Cl)ccc1O [NEN, Niclosamide ethanolamine]")
1.95
>>> numeric_result("COc1cc(C(=O)OCC=C(C)C)nc2c(OCC=C(C)C)cccc12 [Ppc-1, Polysphondylium pseudo-candidum-1]")
4.13
>>> numeric_result("Cc1sc(-c2ccc(C(F)(F)F)cc2)nc1-c1nn[nH]c1C#N [OPC-163493]")
3.00
>>> numeric_result("FC(F)(F)c1nc2c(Cl)c(Cl)c(Cl)c(Cl)c2[nH]1 [TTFB]")
2.72

// provenance: paper PMC12303080
